Assay: Thermal stability: residual activity after incubation at 60° C. for one hour
Format: biochemical
Conditions: crude recombinant enzyme; after incubation at 60° C. for 1 hour
Description: Thermal stability of the enzyme was investigated by measuring the activity of the enzyme after incubation at 60° C. for one hour and finding its relative activity supposing that the activity at 60° C. under the reaction conditions (10 minutes) used for determining the optimum temperature in the above 2 shown in Table 2 was 100. […] The residual enzyme activity was then measured by the conventional method. […]
parameter measured: Residual activity (%)
Could you give me the number in %? Just the number is fine.

Ask: Quote Residual activity (%) reported for Ketose 3-epimerase mutant 29: amino acid-substituted mutant of SEQ ID NO: 1 (protein, Arthrobacter histidinolovorans) MKIGCHGLVWTGRFDAEGIRYSVQKTKEAGFDLIEFPLMDPFSFDVATAKSALAEYGLTASASLGLSEATDVSSEDPAIVKAGEELLNRALDVLAELGATDFCGVIYSAMKKYMEPATEQGLSNSKAAVGRVVDRAAGLGINVSLEVVNRYETNVLNTGRQALSYLSDVKRPNLGVHLDTYHMNIEESDMFSPVLDTAEALKYVHIGESHRGYLGTGSVDFDNFFKALGRIGYDGPVVFESFSSAVVAPDLSRMLGIWRNLWADNEELGAHANAFIRDKLTAIKTIELH please.
Result: 56.8
